- experiment notes: Cytotoxicity against Chinese hamster CHO cells assessed as reduction in cell viability incubated for 24 hrs by MTT assay
- Format: toxicity, cell-based, Cricetulus griseus
Label yes (1) when IC50 at 24 h < 30 µM; otherwise no (0).

[
  {
    "compound": "O[C@@H](CNCCN1CCN(C(c2ccccc2)c2ccccc2)CC1)c1cc(C(F)(F)F)nc2c(C(F)(F)F)cccc12",
    "assigned class": "yes (1)"
  },
  {
    "compound": "O[C@@H](CNCCNC(c1ccccc1)c1ccccc1)c1cc(C(F)(F)F)nc2c(C(F)(F)F)cccc12",
    "assigned class": "yes (1)"
  },
  {
    "compound": "O[C@H](CNCC1CC1)c1cc(C(F)(F)F)nc2c(C(F)(F)F)cccc12",
    "assigned class": "no (0)"
  },
  {
    "compound": "COC[C@H](Cc1ccccc1)NC[C@@H](O)c1cc(C(F)(F)F)nc2c(C(F)(F)F)cccc12",
    "assigned class": "no (0)"
  },
  {
    "compound": "O[C@H](CNCCNC(c1ccccc1)c1ccccc1)c1cc(C(F)(F)F)nc2c(C(F)(F)F)cccc12",
    "assigned class": "yes (1)"
  },
  {
    "compound": "OC[C@@H](Cc1ccccc1)NC[C@H](O)c1cc(C(F)(F)F)nc2c(C(F)(F)F)cccc12",
    "assigned class": "yes (1)"
  },
  {
    "compound": "O[C@@H](CNCCCC(F)(F)F)c1cc(C(F)(F)F)nc2c(C(F)(F)F)cccc12",
    "assigned class": "no (0)"
  },
  {
    "compound": "COc1cccc2c1C(=O)c1c(O)c3c(c(O)c1C2=O)C[C@@](O)(C(=O)CO)C[C@@H]3O[C@H]1C[C@H](N)[C@H](O)[C@H](C)O1",
    "assigned class": "yes (1)"
  },
  {
    "compound": "O[C@@H](CNCC1CC1)c1cc(C(F)(F)F)nc2c(C(F)(F)F)cccc12",
    "assigned class": "yes (1)"
  },
  {
    "compound": "O[C@H](CNCCCC(F)(F)F)c1cc(C(F)(F)F)nc2c(C(F)(F)F)cccc12",
    "assigned class": "no (0)"
  },
  {
    "compound": "O[C@H](CNCCN1CCN(C(c2ccccc2)c2ccccc2)CC1)c1cc(C(F)(F)F)nc2c(C(F)(F)F)cccc12",
    "assigned class": "yes (1)"
  },
  {
    "compound": "OC[C@H](Cc1ccccc1)NC[C@H](O)c1cc(C(F)(F)F)nc2c(C(F)(F)F)cccc12 (single isomer, unassigned)",
    "assigned class": "no (0)"
  },
  {
    "compound": "COC[C@H](Cc1ccccc1)NC[C@H](O)c1cc(C(F)(F)F)nc2c(C(F)(F)F)cccc12",
    "assigned class": "no (0)"
  },
  {
    "compound": "OC[C@@H](Cc1ccccc1)NC[C@@H](O)c1cc(C(F)(F)F)nc2c(C(F)(F)F)cccc12 (single isomer, unassigned)",
    "assigned class": "no (0)"
  }
]

###

- experiment notes: Cytotoxicity against human THP-1 cells assessed as reduction in cell viability incubated for 72 hrs by MTT assay
- Type: toxicity, cell-based

[
  {
    "molecule": "O[C@@H](CNCCNC(c1ccccc1)c1ccccc1)c1cc(C(F)(F)F)nc2c(C(F)(F)F)cccc12",
    "value units": "µM",
    "IC50 at 72 h": 5
  },
  {
    "molecule": "O[C@H](CNCCN1CCN(C(c2ccccc2)c2ccccc2)CC1)c1cc(C(F)(F)F)nc2c(C(F)(F)F)cccc12",
    "value units": "µM",
    "IC50 at 72 h": 10.8
  },
  {
    "molecule": "O[C@H](CNCCNC(c1ccccc1)c1ccccc1)c1cc(C(F)(F)F)nc2c(C(F)(F)F)cccc12",
    "value units": "µM",
    "IC50 at 72 h": 8.9
  },
  {
    "molecule": "OC[C@@H](Cc1ccccc1)NC[C@@H](O)c1cc(C(F)(F)F)nc2c(C(F)(F)F)cccc12 (single isomer, unassigned)",
    "value units": "µM",
    "IC50 at 72 h": 7.5
  },
  {
    "molecule": "O[C@@H](CNCC1CC1)c1cc(C(F)(F)F)nc2c(C(F)(F)F)cccc12",
    "value units": "µM",
    "IC50 at 72 h": 12.4
  },
  {
    "molecule": "COC[C@H](Cc1ccccc1)NC[C@H](O)c1cc(C(F)(F)F)nc2c(C(F)(F)F)cccc12",
    "value units": "µM",
    "IC50 at 72 h": 16.9
  },
  {
    "molecule": "OC[C@@H](Cc1ccccc1)NC[C@H](O)c1cc(C(F)(F)F)nc2c(C(F)(F)F)cccc12",
    "value units": "µM",
    "IC50 at 72 h": 7.8
  },
  {
    "molecule": "COC[C@H](Cc1ccccc1)NC[C@@H](O)c1cc(C(F)(F)F)nc2c(C(F)(F)F)cccc12",
    "value units": "µM",
    "IC50 at 72 h": 16.2
  }
]

###

- Test system: Plasmodium falciparum
- experiment notes: Selectivity index, ratio of IC50 for antiplasmodial activity against CQ-susceptible Plasmodium falciparum 3D7 to IC50 for antiplasmodial activity CQ-resistant Plasmodium falciparum W2 by HRP2-ELISA
- Type: functional
Label fulfilled when Ratio IC50 < 1; otherwise not fulfilled.

[
  {
    "compound": "O[C@H](CNCC1CC1)c1cc(C(F)(F)F)nc2c(C(F)(F)F)cccc12",
    "assigned class": "fulfilled"
  },
  {
    "compound": "O[C@H](CNCCCC(F)(F)F)c1cc(C(F)(F)F)nc2c(C(F)(F)F)cccc12",
    "assigned class": "fulfilled"
  },
  {
    "compound": "C=C[C@H]1CN2CC[C@H]1C[C@H]2[C@H](O)c1ccnc2ccc(OC)cc12",
    "assigned class": "fulfilled"
  },
  {
    "compound": "O[C@H](CNCCNC(c1ccccc1)c1ccccc1)c1cc(C(F)(F)F)nc2c(C(F)(F)F)cccc12",
    "assigned class": "not fulfilled"
  },
  {
    "compound": "O[C@H](CNCCN1CCN(C(c2ccccc2)c2ccccc2)CC1)c1cc(C(F)(F)F)nc2c(C(F)(F)F)cccc12",
    "assigned class": "not fulfilled"
  },
  {
    "compound": "OC[C@@H](Cc1ccccc1)NC[C@@H](O)c1cc(C(F)(F)F)nc2c(C(F)(F)F)cccc12 (single isomer, unassigned)",
    "assigned class": "not fulfilled"
  },
  {
    "compound": "O[C@@H](CNCC1CC1)c1cc(C(F)(F)F)nc2c(C(F)(F)F)cccc12",
    "assigned class": "not fulfilled"
  }
]

###

- subject of test: Cytochrome P450 3A4 (Homo sapiens)
- Sequence (P08684 whole entry): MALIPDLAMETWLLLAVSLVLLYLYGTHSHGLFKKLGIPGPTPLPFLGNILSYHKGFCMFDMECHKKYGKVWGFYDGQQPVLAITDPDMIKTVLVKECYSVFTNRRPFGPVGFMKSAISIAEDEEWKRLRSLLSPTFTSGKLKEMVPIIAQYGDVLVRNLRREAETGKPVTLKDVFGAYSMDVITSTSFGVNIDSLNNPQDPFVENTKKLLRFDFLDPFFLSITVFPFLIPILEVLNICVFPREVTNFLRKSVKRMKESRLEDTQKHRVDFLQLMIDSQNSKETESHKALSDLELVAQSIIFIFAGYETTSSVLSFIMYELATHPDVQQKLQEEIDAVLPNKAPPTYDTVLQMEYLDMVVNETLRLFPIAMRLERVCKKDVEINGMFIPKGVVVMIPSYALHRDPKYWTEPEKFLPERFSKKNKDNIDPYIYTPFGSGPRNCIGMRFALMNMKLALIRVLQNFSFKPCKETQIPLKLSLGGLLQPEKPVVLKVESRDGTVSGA
- experiment notes: Inhibition of CYP3A4 in human liver microsomes assessed as reduction in 6-beta-hydroxy-testosterone formation using testosterone as substrate preincubated for 20 mins in absence of NADPH followed by incubation with substrate for 10 mins by LC-MS/MS analysis
- Type: ADME, Microsome

[
  {
    "smiles record": "COC[C@H](Cc1ccccc1)NC[C@@H](O)c1cc(C(F)(F)F)nc2c(C(F)(F)F)cccc12",
    "value units": "nM",
    "IC50": 2900
  }
]

###

- experiment notes: Metabolic stability in mouse liver microsomes assessed as intrinsic clearance at 0.5 uM incubated for 30 mins by LC-MS/MS analysis
- Format: ADME, Microsome
- test parameters: read-out: CLH
property: microsomal CLint at 0.5 µM

[
  {
    "molecule": "COC[C@H](Cc1ccccc1)NC[C@@H](O)c1cc(C(F)(F)F)nc2c(C(F)(F)F)cccc12",
    "result": "> 1000 µL/min/mg"
  },
  {
    "molecule": "O[C@H](c1cc(C(F)(F)F)nc2c(C(F)(F)F)cccc12)[C@@H]1CCCCN1 [(R,S)-MEFLOQUINE]",
    "result": "< 20 µL/min/mg"
  },
  {
    "molecule": "O[C@@H](c1cc(C(F)(F)F)nc2c(C(F)(F)F)cccc12)[C@H]1CCCCN1 [(S,R)-MEFLOQUINE]",
    "result": "< 20 µL/min/mg"
  }
]

###

- experiment notes: Selectivity index, ratio of IC50 for cytotoxicity against human THP-1 cells to IC50 for antiplasmodial activity against CQ-susceptible Plasmodium falciparum 3D7 by SYBR Green 1 dye based fluorescence assay
- Type: toxicity, cell-based
- test parameters: THP-1 cells versus CQ-susceptible Plasmodium falciparum 3D7, read-out: Ratio IC50
property: selectivity ratio

[
  {
    "smiles record": "O[C@@H](CNCCN1CCN(C(c2ccccc2)c2ccccc2)CC1)c1cc(C(F)(F)F)nc2c(C(F)(F)F)cccc12",
    "numeric readout": 168
  }
]
